# EXPERIMENT NOTES: PSAC antagonists in infected red cells, primary screen, cell-based, P. falciparum Indochina, OD700, 2 h (AID 1155);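 note: lysis reports solute entry through the parasite surface anion channel PSAC; channel blockers reduce lysis of infected cells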
# TEST CONDITIONS: P. falciparum Indochina infected erythrocytes, osmotic lysis OD700; higher = more signal, called active from +8 up or from −8 down
READOUT NAME: z-score
Number only, please.

{"COMPOUND": "C=C(C(=O)CC[C@@H](OC(=O)c1ccccc1-c1ccccc1C(=O)O)c1ccc(CO)o1)C(C)C", "z-score": 0.192}

What z-score value was documented for this compound, CCOC(=O)C1=CC[C@@H](c2ccccc2)N(S(=O)(=O)c2ccc(C)cc2)[C@@H]1C#N ? 0.804

What z-score value was documented for this compound, COC(=O)C(CC#Cc1ccc2c(c1)[C@]1(C(=O)N2)[C@H](C(=O)N2CCCCCCC2)[C@H]2C(=O)O[C@H](c3ccccc3)[C@H](c3ccccc3)N2[C@@H]1c1ccc(OCCO)cc1)C(=O)OC ? 2.51

* * *

# EXPERIMENT NOTES: small-molecule binders of probe aNOTCH2, primary screen, biochemical, small-molecule microarray, 635/667 nm fluorescence (AID 1121);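 note: score merges feature fluorescence read at 667 nm with its signal to noise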
# TEST CONDITIONS: higher = more signal
Rule: y for composite z-score not less than -0.07, n for anything less.

Reference set (2 entries):
{"MOLECULE": "CCc1cccc(NC(=O)O[C@H]2[C@H](OC(=O)Nc3ccccc3-c3ccccc3)[C@H](OC(=O)Nc3ccccc3-c3ccccc3)[C@@H](OC)O[C@@H]2CO)c1", "ASSIGNED CLASS": "y"}
{"MOLECULE": "Cc1ccc(S[C@]2(C(=O)NCc3ccccc3)CC(=O)N(Cc3ccccc3Cl)[C@@H]2c2ccc(CO)cc2)cc1", "ASSIGNED CLASS": "n"}

hey, is composite z-score for this one >= -0.07? Cc1ccc(N2C(=O)c3ccccc3[C@@H](C(=O)NCCN3CCOCC3)[C@@H]2c2ccc(CO)cc2)nc1 n

hey, is composite z-score for this one >= -0.07? CC(C)[Si]1(C(C)C)OCc2cc(-c3ccc(-c4ccc(Cl)c(Cl)c4)o3)nc(-c3ccc(Oc4ccccc4)cc3)c21 n

hey, is composite z-score for this one >= -0.07? CC(C)c1ccc(NN2C(C(O)c3ccccc3)C=CC3C(=O)N(c4ccccc4)C(=O)C32)cc1 (configuration not stated) y

* * *

# ASSAY TARGET: Epidermal growth factor receptor (Homo sapiens) (UniProt P00533)
# Sequence (P00533 whole entry, looked up): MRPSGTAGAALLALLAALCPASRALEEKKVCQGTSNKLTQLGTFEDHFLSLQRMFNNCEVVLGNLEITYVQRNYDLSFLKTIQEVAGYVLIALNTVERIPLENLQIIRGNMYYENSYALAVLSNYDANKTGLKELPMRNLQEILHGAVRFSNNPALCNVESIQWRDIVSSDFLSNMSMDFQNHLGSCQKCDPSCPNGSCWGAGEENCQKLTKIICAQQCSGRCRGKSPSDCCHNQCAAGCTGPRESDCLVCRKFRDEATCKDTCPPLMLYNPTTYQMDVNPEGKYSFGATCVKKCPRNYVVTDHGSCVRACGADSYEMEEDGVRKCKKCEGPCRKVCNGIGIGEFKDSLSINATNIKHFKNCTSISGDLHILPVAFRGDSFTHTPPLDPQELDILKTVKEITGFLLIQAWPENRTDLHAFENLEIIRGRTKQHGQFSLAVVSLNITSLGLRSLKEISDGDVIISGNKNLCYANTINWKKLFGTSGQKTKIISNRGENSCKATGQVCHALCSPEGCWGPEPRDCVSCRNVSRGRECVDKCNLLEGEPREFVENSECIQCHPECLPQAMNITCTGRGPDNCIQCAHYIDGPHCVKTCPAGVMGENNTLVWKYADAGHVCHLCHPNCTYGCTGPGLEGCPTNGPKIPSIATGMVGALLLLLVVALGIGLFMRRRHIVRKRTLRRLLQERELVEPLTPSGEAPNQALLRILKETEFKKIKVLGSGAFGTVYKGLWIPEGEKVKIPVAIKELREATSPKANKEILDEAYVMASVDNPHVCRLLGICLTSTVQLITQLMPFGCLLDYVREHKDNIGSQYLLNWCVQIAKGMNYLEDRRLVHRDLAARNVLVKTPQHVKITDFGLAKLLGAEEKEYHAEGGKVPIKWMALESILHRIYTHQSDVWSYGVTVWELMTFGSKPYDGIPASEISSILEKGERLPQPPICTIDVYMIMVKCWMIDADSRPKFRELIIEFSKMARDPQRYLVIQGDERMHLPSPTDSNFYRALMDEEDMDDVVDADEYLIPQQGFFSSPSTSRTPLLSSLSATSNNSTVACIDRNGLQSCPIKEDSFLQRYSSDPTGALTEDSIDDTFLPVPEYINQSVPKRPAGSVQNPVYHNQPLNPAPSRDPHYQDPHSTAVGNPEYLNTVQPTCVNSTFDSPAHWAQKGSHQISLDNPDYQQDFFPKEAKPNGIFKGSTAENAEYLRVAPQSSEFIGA
# EXPERIMENT NOTES: EGFR binders on small-molecule microarrays, primary screen, biochemical, small-molecule microarray, 635 nm fluorescence (AID 1104);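 note: score merges 667 nm emission intensity with spot signal to noise over triplicate slides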
# TEST CONDITIONS: EGFR binding, higher = more signal
Item-by-item account of composite z-score
Number only, please.

{"MOL": "CCOC(=O)C[C@H]1[C@H](OC(=O)c2cc3ccccc3oc2=O)[C@@H](NC(=O)Cc2ccc(OC)cc2)c2cc(OCCCO)ccc2N1C(=O)Cc1ccc(OC)cc1", "NUMERIC READOUT": 0.455}
{"MOL": "COC(=O)C(CC#Cc1ccc2c(c1)[C@]1(C(=O)N2)[C@H](C(N)=O)[C@H]2C(=O)O[C@H](c3ccccc3)[C@H](c3ccccc3)N2[C@@H]1c1ccccc1OCCO)C(=O)OC", "NUMERIC READOUT": -0.0452}

What composite z-score value was documented for this compound, [N-]=[N+]=Nc1ccccc1C[C@]1(C(=O)N2CCCCC2)N=C(c2ccc(OCCCO)cc2)O[C@H]1c1ccccc1 ? 0.102

* * *

# ASSAY TARGET: Pro-neuregulin-1, membrane-bound isoform (Homo sapiens) (UniProt Q02297)
# Sequence (Q02297 whole entry, looked up, canonical isoform): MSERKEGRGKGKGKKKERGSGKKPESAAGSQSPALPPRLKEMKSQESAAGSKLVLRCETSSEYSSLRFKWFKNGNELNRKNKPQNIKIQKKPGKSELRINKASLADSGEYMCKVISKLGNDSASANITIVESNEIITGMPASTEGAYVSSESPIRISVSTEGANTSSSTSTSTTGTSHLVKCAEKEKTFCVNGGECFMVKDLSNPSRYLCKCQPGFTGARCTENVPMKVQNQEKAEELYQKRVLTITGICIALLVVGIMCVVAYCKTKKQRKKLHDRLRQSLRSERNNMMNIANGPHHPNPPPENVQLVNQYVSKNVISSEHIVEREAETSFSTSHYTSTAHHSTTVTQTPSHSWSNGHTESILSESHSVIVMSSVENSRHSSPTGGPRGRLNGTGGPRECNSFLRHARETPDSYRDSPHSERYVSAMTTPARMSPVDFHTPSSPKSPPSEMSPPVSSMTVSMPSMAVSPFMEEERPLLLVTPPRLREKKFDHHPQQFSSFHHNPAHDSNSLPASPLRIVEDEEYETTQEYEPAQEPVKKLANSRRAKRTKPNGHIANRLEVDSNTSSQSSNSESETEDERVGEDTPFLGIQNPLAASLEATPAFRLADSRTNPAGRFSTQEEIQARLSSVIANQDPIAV
# EXPERIMENT NOTES: NRG1 binders on small-molecule microarrays, primary screen, psychiatric disease protein project, biochemical, small-molecule microarray, fluorescence 635/667 (AID 1075);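 note: score combines 667 nm spot fluorescence with signal to noise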
# TEST CONDITIONS: NRG1 binding, 635 nm fluorescence, higher = more signal
Rule: label 1 for composite z-score not less than 1, label 0 for anything less.

{"COMPOUND": "O=C1C2C=CC(C(O)C3CC=CCC3)N(Nc3ccc([N+](=O)[O-])cc3)C2C(=O)N1c1ccccc1 (stereo not given)", "ASSAY TARGET": "Pro-neuregulin-1, membrane-bound isoform (Homo sapiens) (UniProt Q02297)", "ASSIGNED CLASS": "label 1"}

From here, focus on the item given below.
hey, is composite z-score for this one >= 1? COc1cc2c(cc1O)C(C)N(Cc1sc3ccccc3c1Cl)CC2 (stereo not given) label 0

* * *

# EXPERIMENT NOTES: MM1S cell viability effects, profiling panel, calcein-AM fluorescence, 48 h, basal (AID 1165);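 note: viability of MM1S multiple myeloma cells under basal unstimulated conditions; test concentration not given here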
# TEST CONDITIONS: higher = more signal
READOUT NAME: z-score
Number only, please.

Please review the entries below; each comes with its answer.
{"MOL": "CN(C)C(=O)[C@]1(CCS(=O)(=O)c2ccccc2)N=C(c2ccc(OCCCO)cc2)O[C@@H]1c1ccccc1CN=[N+]=[N-]", "z-score": -1.29}
{"MOL": "C=C(C(=O)CC[C@@H](OC(=O)c1ccccc1-c1ccccc1C(=O)O)c1ccc(OCCO)cc1)C(C)C", "z-score": -3.22}
{"MOL": "C=CCOC(=O)[C@@H]1[C@H]2C(=O)O[C@H](c3ccccc3)[C@H](c3ccccc3)N2[C@H](c2ccc(OCCOC(=O)[C@@H]3C[C@@H]4C(=O)N[C@@H](CC(C)C)C(=O)N4[C@@H]3c3ccc(O)cc3)cc2)[C@@]12C(=O)Nc1ccc(I)cc12", "z-score": 0.26}

# input for lookup
What z-score value was documented for this molecule, CCCN1C(=O)[C@@]2(c3ccc([N+](=O)[O-])cc3)CC(=O)N(C3CCCCC3)[C@@H]2c2ccc(CO)cc21 ? -0.679

* * *

Item-by-item account of z-score
# EXPERIMENT NOTES: yeast growth modulation, basal conditions, primary screen, YJM789 clinical isolate, OD600, 24 h (AID 1089);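 note: growth of clinical yeast isolate S. cerevisiae YJM 789 seeded 1000 cells per well; test concentration not given here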
# TEST CONDITIONS: S. cerevisiae YJM789 growth, higher = more signal, called active from +8 up or from −8 down
Number only, please.

Please review the entries below; each comes with its answer.
{"COMPOUND": "O=C(NCC(F)(F)F)[C@@H]1c2ccccc2C(=O)N(Cc2cc(C(F)(F)F)cc(C(F)(F)F)c2)[C@H]1c1ccc(CO)cc1", "READOUT NAME": "z-score", "NUMERIC READOUT": 0.338}
{"COMPOUND": "CC(C)C[C@@H]1NC(=O)[C@H]2C[C@@H](C(=O)O)[C@@H](c3cccc(OCCO)c3)N2C1=O", "READOUT NAME": "z-score", "NUMERIC READOUT": 0.395}
{"COMPOUND": "CCOC(=O)C=C1C[C@@H](c2cccc([N+](=O)[O-])c2)O[C@@H](c2cccc([N+](=O)[O-])c2)O1", "READOUT NAME": "z-score", "NUMERIC READOUT": 1.07}
{"COMPOUND": "O=C1NC(=O)C2C1C=CC(C(O)C(O)CO)N2Nc1ccccn1 (configuration not stated)", "READOUT NAME": "z-score", "NUMERIC READOUT": -0.517}
{"COMPOUND": "COc1ccc(C(=O)Nc2cccc(CN3C(=O)[C@]4(O[C@H](CC(=O)N(CCO)Cc5ccccc5)[C@@H]([Si](C)(C)c5ccc(OC)cc5)[C@@H]4C)c4ccccc43)c2)cc1", "READOUT NAME": "z-score", "NUMERIC READOUT": 1.22}

What z-score value was documented for this compound, COCCCNC(=O)[C@]1(Cc2ccccc2N=[N+]=[N-])N=C(c2ccc(OCCCO)cc2)O[C@@H]1c1ccccc1 ? -1.51

What z-score value was documented for this compound, C=C(COC)/C(=C/C[C@@H](OC(=O)c1ccncc1)c1ccccc1OCCO)c1cnc2ccccc2c1 ? -0.564

* * *

Item-by-item account of z-score
# EXPERIMENT NOTES: inhibitors of hydroxyurea-induced Chk1 phosphorylation, primary screen, imaging, HeLa, phospho-Chk1 nuclear intensity (AID 1187); note: test concentration not given here
# TEST CONDITIONS: hydroxyurea-induced phospho-Chk1 immunofluorescence imaging, higher = more signal
Number only, please.

Please review the entries below; each comes with its answer.
{"MOL": "COc1ccc(CCNC(=O)[C@@]2(c3ccc([N+](=O)[O-])cc3)CC(=O)N(C3CCCCC3)[C@@H]2c2ccc(CO)cc2I)cc1", "z-score": 0.294}
{"MOL": "COc1ccc(C#Cc2ccc3c(c2)[C@]2(C(=O)N3)[C@H](c3ccccc3OCCO)N3[C@H](c4ccccc4)[C@H](c4ccccc4)OC(=O)[C@H]3[C@@H]2C(=O)NC[C@H](O)c2ccccc2)cc1", "z-score": 0.108}
{"MOL": "CO[C@H]1O[C@H](CO)[C@@H](OC(=O)CCc2ccccc2)[C@@H]2OC(=O)[C@@H](Cc3ccc4ccccc4c3)C/C=C/C[C@H](Cc3ccc4ccccc4c3)C(=O)O[C@@H]12", "z-score": -0.343}
{"MOL": "CC(C)[Si](C#Cc1ccccc1)(O[C@H](c1ccccc1)c1cn(Cc2ccccc2)nn1)C(C)C", "z-score": 0.124}
{"MOL": "C=CCNC(=O)[C@H]1[C@@H]2C(=O)O[C@@H](c3ccccc3)[C@@H](c3ccccc3)N2[C@@H](c2ccc(O)cc2)[C@]12C(=O)Nc1ccccc12", "z-score": 0.432}
{"MOL": "O=C(O)C1=CC[C@H]2C(=O)N(c3ccccc3)C(=O)[C@@H]12", "z-score": -0.647}

What z-score value was documented for this molecule, CN(C)C(=O)[C@]1(CCS(=O)(=O)c2ccccc2)N=C(c2ccc(OCCCO)cc2)O[C@@H]1c1ccccc1CN=[N+]=[N-] ? -0.0306

The reported measurements were obtained from PubChem BioAssay.
